Target: FXR (Rattus norvegicus)
Experiment: cell-based
Details: dose 20 μM; 1 = no increase over vehicle
Experimental: These experiments employed a mammalian cell culture system using Chinese hamster ovary cells (CHO) to evaluate the transcriptional function of Drosophila melanogaster EcR and USP using methods described previously (U.S. Patent Application Publication No: 2005/0049230; Henrich et al, 2003). […] Both β-galactosidase and CAT reporter activity were measured based on previously used methods (Kitareewan et al, 1996). […]
observation.type: FXR ACTIVITY (fold-induction)
The answer is to be given in fold-induction; state only the numeric part.

Examples with their reported FXR ACTIVITY (fold-induction) follow.
FXR ACTIVITY (fold-induction) lookup needed for C[C@@]12C=Cc3occc3[C@H]1CC[C@@]13C[C@@H](CC[C@H]12)[C@@](O)(CO)C3 [kahweol] , thanks. 10

Fill blank: measured FXR ACTIVITY (fold-induction) of the compound CC(C)=CCc1c(O)cc(O)c2c1O[C@H](c1ccc(O)cc1)CC2=O [8-prenylnaringenin] is ____. 38

Name the recorded FXR ACTIVITY (fold-induction) for C[C@@]12CCc3occc3[C@H]1CC[C@@]13C[C@@H](CC[C@H]12)[C@@](O)(CO)C3 [cafestol] . 12

Which FXR ACTIVITY (fold-induction) is listed for C=C(C)[C@H]1Cc2c(ccc3c2O[C@@H]2COc4cc(OC)c(OC)cc4[C@@H]2C3=O)O1 [rotenone] ? 1

// lookup FXR ACTIVITY (fold-induction) for COc1cc(O)c(CC=C(C)C)c2c1C(=O)CC(c1ccc(O)cc1)O2 (centres unmarked) [Isoxanthohumol] 9

Need FXR ACTIVITY (fold-induction), item COc1cc2c(cc1OC)[C@@H]1C(=O)c3ccc(O)c(CC=C(C)C)c3O[C@@H]1CO2 [rotenonic acid] 20

Report FXR ACTIVITY (fold-induction) for CC(C)=CCC/C(C)=C/CC/C(C)=C/CC[C@]1(C)CCc2cc(O)c(C)c(C)c2O1 [γ-tocotrienol] please. 1

New cases:
Consider the compound shown here: CC(C)=CCC1=C(O)C(C(=O)CC(C)C)=C(O)C(CC=C(C)C)(CC=C(C)C)C1=O [Lupulone] What is its recorded FXR ACTIVITY (fold-induction)? 1

###

Biological target: FXR (Rattus norvegicus, UniProt Q62735)
Sequence (Q62735 whole entry): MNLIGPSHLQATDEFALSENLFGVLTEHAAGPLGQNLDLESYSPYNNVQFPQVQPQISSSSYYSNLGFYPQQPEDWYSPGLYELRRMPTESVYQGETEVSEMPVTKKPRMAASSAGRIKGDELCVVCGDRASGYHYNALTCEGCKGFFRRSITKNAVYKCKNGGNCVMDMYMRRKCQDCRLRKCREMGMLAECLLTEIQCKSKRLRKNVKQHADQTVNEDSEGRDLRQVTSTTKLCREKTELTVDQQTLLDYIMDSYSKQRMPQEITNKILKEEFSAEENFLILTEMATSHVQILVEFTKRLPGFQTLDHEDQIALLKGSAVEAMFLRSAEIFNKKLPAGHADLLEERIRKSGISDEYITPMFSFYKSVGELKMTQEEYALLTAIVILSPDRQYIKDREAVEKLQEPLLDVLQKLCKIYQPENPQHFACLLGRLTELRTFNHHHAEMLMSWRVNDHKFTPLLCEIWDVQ
Sequence (P28700 whole entry partner): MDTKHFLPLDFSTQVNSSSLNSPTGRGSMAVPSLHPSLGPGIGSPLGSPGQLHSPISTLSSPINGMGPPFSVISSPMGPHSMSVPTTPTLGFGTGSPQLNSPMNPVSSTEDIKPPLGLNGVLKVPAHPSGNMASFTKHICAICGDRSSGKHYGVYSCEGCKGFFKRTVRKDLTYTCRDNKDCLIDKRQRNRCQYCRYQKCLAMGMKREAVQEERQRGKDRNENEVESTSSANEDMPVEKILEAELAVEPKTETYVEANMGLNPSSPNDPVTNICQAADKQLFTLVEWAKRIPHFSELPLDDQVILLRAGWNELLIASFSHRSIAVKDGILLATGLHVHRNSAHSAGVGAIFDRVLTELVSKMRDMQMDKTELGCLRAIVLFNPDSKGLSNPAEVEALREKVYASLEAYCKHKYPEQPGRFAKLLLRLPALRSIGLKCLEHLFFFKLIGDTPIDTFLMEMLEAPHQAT
Assay: cell-based
Settings: 5 μM
observation.type: FXR-dependent CAT activity, induction

Notebook entry, FXR (Rattus norvegicus, UniProt Q62735) assay: FXR-dependent CAT activity, induction of O=C1C2(Cl)C3(Cl)C4(Cl)C(Cl)(Cl)C5(Cl)C3(Cl)C1(Cl)C5(Cl)C24Cl (stereo not shown) = ? 12 fold

I'm curious: which FXR-dependent CAT activity, induction was measured for "Clc1ccc(C(c2ccc(Cl)cc2)C(Cl)(Cl)Cl)cc1" tested on FXR (Rattus norvegicus, UniProt Q62735)? not

Param readout = FXR-dependent CAT activity, induction; param system = FXR (Rattus norvegicus, UniProt Q62735); param query = ClC1=C(Cl)C2(Cl)C3C(Cl)C(Cl)CC3C1(Cl)C2(Cl)Cl (stereo not shown) ; response: value 7 fold

Notebook: pull reported FXR-dependent CAT activity, induction for FXR (Rattus norvegicus, UniProt Q62735), entry "Cl[C@H]1[C@H](Cl)[C@@H](Cl)[C@@H](Cl)[C@H](Cl)[C@H]1Cl" 5 fold

Data provenance: patent US8637237B2
